- methodSummary: in vitro
- Assay type: in vitro ADME
- cond: human, plasma

- substanceSmiles: "O=C(NO)c1ccc(Cn2cc(-c3ccc(CN4CCCC4)cc3)nn2)cc1"
  remaining at 4 h (%): 98.9

====

- methodSummary: Repeated dose 14-day toxicokinetics (TK) study
- Type: in vivo, Sprague–Dawley rats
- cond: female, Sprague-Dawley, rat, in vivo, po, 100 mg/kg, female, day 1, 100 mg/kg bw
measurementName: AUC(0-inf) (ng·h/mL)

- substanceSmiles: "O=C(NO)c1ccc(Cn2cc(-c3ccc(CN4CCCC4)cc3)nn2)cc1"
  val: 448

====

- methodSummary: Single dose pharmacokinetics in SCID mice
- Assay type: in vivo
- cond: female, C.B-17/IcrHsd-Prkdc^scidLyst^bg (SCID), mouse, plasma; infected SCID mice, oral, 50 mg/Kg
measurementName: Cmax (ng/mL)

- substanceSmiles: "O=C(NO)c1ccc(Cn2cc(-c3ccc(CN4CCCC4)cc3)nn2)cc1"
  measurementName: "Cmax"
  val: 460

====

- methodSummary: in vitro
- Type: in vitro ADME
- cond: mouse, plasma
measurementName: remaining at 4 h (%)

- substanceSmiles: "O=C(NO)c1ccc(Cn2cc(-c3ccc(CN4CCCC4)cc3)nn2)cc1"
  uom: "%"
  val: 89.2

====

- methodSummary: Repeated dose 14-day toxicokinetics (TK) study
- Assay type: in vivo, Sprague–Dawley rats
- cond: female, Sprague-Dawley, rat, in vivo, po, 100 mg/kg, female, day 14, 100 mg/kg bw
measurementName: Cmax (ng/mL)

- compound: "O=C(NO)c1ccc(Cn2cc(-c3ccc(CN4CCCC4)cc3)nn2)cc1 [FNDR-20123]"
  val: 207

====

- methodSummary: Single dose pharmacokinetics in Balb/C mice
- Assay type: in vivo
- cond: male, mouse, plasma; normal Balb/C mice, oral, 50 mg/Kg

- compound: "O=C(NO)c1ccc(Cn2cc(-c3ccc(CN4CCCC4)cc3)nn2)cc1 [FNDR-20123]"
  uom: "h"
  Tmax: 1

====

- methodSummary: Single dose pharmacokinetics in SCID mice
- Type: in vivo
- cond: female, C.B-17/IcrHsd-Prkdc^scidLyst^bg (SCID), mouse, plasma; infected SCID mice, oral, 50 mg/Kg

- substanceSmiles: "O=C(NO)c1ccc(Cn2cc(-c3ccc(CN4CCCC4)cc3)nn2)cc1"
  Tmax, h: 1

====

- methodSummary: Repeated dose 14-day toxicokinetics (TK) study
- Format: in vivo, Sprague–Dawley rats
- cond: male, Sprague-Dawley, rat, in vivo, po, 100 mg/kg, male, day 14, 100 mg/kg bw
measurementName: Cmax

- substanceSmiles: "O=C(NO)c1ccc(Cn2cc(-c3ccc(CN4CCCC4)cc3)nn2)cc1"
  measurementName: "Cmax"
  val: "0.703 µg/mL"

====

- measurementTarget: CYP2C9 (Homo sapiens)
- Sequence (P11712 whole entry, species assumed): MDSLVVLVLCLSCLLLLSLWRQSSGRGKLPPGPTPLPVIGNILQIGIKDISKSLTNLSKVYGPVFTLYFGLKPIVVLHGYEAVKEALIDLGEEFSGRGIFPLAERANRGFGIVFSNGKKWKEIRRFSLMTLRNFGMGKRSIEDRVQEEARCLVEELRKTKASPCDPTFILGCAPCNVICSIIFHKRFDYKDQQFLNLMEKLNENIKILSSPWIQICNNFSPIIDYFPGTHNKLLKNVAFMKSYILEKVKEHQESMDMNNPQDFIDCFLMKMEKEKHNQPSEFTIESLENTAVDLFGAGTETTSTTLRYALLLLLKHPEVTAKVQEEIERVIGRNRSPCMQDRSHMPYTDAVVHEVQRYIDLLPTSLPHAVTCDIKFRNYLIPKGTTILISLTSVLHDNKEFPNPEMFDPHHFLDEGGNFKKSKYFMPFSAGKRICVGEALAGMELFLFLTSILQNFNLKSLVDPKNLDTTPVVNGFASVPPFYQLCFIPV
- methodSummary: CYP inhibition
- Format: in vitro ADME
- cond: read-out: CYP inhibition IC50, CYP 2C9
pIC50: −log10 of the molar value.

- compound: "O=C(NO)c1ccc(Cn2cc(-c3ccc(CN4CCCC4)cc3)nn2)cc1 [FNDR-20123]"
  pIC50: "< 4.22"

====

- methodSummary: Repeated dose 14-day toxicokinetics (TK) study
- Assay type: in vivo, Sprague–Dawley rats
- cond: male, Sprague-Dawley, rat, in vivo, po, 100 mg/kg, male, day 1, 100 mg/kg bw

- substanceSmiles: "O=C(NO)c1ccc(Cn2cc(-c3ccc(CN4CCCC4)cc3)nn2)cc1"
  Cmax (ng/mL): 420
